Biological target: A1 adenosine receptors in membranes from feline PAECs (Felis catus, UniProt A0ABI7XJE9)
Sequence (A0ABI7XJE9 1-326): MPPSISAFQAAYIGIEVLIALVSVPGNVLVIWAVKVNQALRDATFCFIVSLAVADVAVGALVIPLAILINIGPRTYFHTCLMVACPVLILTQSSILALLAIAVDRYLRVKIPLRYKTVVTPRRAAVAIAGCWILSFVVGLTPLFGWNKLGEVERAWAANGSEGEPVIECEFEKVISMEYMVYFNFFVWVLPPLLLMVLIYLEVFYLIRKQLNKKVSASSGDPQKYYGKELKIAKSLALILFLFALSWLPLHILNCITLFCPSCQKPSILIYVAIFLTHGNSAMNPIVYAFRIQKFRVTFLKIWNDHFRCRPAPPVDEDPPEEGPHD
Experiment: Saturation experiments with [3H] DPCPX in feline PAEC membranes
Format: binding
Conditions: normoxia
measured-property: pKd
Please treat pKd as minus the base-10 logarithm of the molar concentration.

In: Fill in: pKd of CCCn1c(=O)c2[nH]c(C3CCCC3)nc2n(CCC)c1=O [[^3H]-DPCPX] is ___
Out: 9.48
